The following compounds are shown together with reported inhibition at 10 µM values.
target or system: recombinant human mPGES-1 (Homo sapiens)
Construct: made in house; host or cells: Rosetta E. coli (membrane/microsome fraction)
Sequence (O14684 whole entry): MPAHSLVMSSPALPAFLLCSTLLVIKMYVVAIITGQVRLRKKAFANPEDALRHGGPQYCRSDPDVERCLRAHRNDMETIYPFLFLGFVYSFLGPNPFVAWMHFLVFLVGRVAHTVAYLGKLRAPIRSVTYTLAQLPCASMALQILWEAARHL
assay comment: mPGES-1 HTRF assay (inhibition of PGE2 formation from PGH2)
Type: biochemical
conditions: compound concentration of 10 μM, HTRF assay; read-out: % inhibition
measured metric: inhibition at 10 µM (%)

Cn1c(Nc2cc(CNC(=O)C3(C)CCCCC3)ccc2Cl)nc2cc(S(=O)(=O)NC3CCCC3)ccc21; 98
CSC1(C(=O)NCc2ccc(Cl)c(Nc3nc4cc(C(=O)Nc5ccc(Br)cc5)ccc4n3C)c2)CCCC1; 100
CN(C1CCCC1)S(=O)(=O)c1ccc2c(c1)nc(Nc1cc(CNC(=O)C3(C)CCCCC3)ccc1Cl)n2C; 100
CC(=O)NCc1ccc(Cl)c(Nc2nc3cc(C(=O)NCC4CCCCC4)ccc3n2C)c1; 98
